The measured values listed here are drawn from patent EP4603105A1.

# System Name: GDP-bound KRAS wild-type protein (Homo sapiens, UniProt P01116)
# Sequence (P01116 1-188 isoform P01116-2): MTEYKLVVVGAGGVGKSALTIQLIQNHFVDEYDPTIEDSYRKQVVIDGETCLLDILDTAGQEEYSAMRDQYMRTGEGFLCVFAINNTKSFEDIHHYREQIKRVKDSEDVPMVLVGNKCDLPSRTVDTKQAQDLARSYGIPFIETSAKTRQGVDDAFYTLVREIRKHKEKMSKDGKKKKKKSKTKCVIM
# Experimental Protocol: Binding to KRAS by surface plasmon resonance (SPR), dissociation constant KD
# Condition Info: Single Cycle Kinetics

- Item Smiles: "CCO[C@@H]1C[C@H]2C(=O)NC3(CC(C)(C)C3)C(=O)N(C)[C@@H](C3CCCC3)C(=O)N(C)[C@H](C(=O)N(C)CC)CC(=O)N(C)[C@@H]([C@H](C)OC)C(=O)N[C@@H]([C@@H](C)CC)C(=O)N(C)CC(=O)N(C)[C@H]3C/C=C\\CCN(C3=O)[C@@H](Cc3ccc(C(F)(F)F)cc3)C(=O)N(C)CC(=O)N[C@@H](CCc3cc(F)c(C(F)(F)F)c(F)c3)C(=O)N2C1"
  Kd, nM: 0.18
- Item Smiles: "CCC[C@H]1C(=O)N[C@@H]([C@@H](C)CC)C(=O)N(C)CC(=O)N(C)[C@H]2C/C=C\\CCN(C2=O)[C@@H](Cc2ccc(C(F)(F)F)cc2)C(=O)N(C)CC(=O)N[C@@H](CCc2ccc(C(F)(F)F)c(Cl)c2)C(=O)N2CC3(CC3)C[C@H]2C(=O)NC2(CCC2)C(=O)N(C)[C@@H](C2CCCC2)C(=O)N(C)[C@H](C(=O)N(C)C)CC(=O)N1C"
  Kd, nM: 0.047
- Item Smiles: "CCC[C@H]1C(=O)N[C@@H]([C@@H](C)CC)C(=O)N(C)CC(=O)N(C)[C@H]2C/C=C\\CCN(C2=O)[C@@H](Cc2ccc(C(F)(F)F)cc2)C(=O)N(C)CC(=O)N[C@@H](CCc2cc(F)c(C(F)(F)F)c(F)c2)C(=O)N2CC3(CC3)C[C@H]2C(=O)N(C)C2(CCC2)C(=O)N(C)[C@@H](C(CC)CC)C(=O)N(C)[C@H](C(=O)N(C)C)CC(=O)N1C"
  Kd, nM: 0.82

###

# System Name: GDP-bound KRAS wild-type protein (Homo sapiens, UniProt P01116)
# Experimental Protocol: Binding to KRAS by surface plasmon resonance (SPR), dissociation constant KD
# Condition Info: Single Cycle Kinetics

- Compound: "CCO[C@@H]1C[C@H]2C(=O)OC3(CCC3)C(=O)N(C)[C@@H](C3CCCC3)C(=O)N(C)[C@H](C(=O)N(C)C)CC(=O)N(C)[C@@H](CC(C)C)C(=O)N[C@@H]([C@@H](C)CC)C(=O)N3CCC[C@H]3C(=O)N(C)[C@H]3C/C=C\\CCN(C3=O)[C@@H](Cc3ccc(C)cc3)C(=O)N(C)CC(=O)N[C@@H](CCc3ccc(C(F)(F)F)c(OC)c3)C(=O)N2C1 [PP3380]"
  Kd / nM: 1.3
- Compound: "CCC[C@H]1C(=O)N[C@@H]([C@@H](C)CC)C(=O)N(C)CC(=O)N(C)[C@H]2C/C=C\\CCN(C2=O)[C@@H](Cc2ccc(C(F)(F)F)cc2)C(=O)N(C)CC(=O)N[C@@H](CCc2cc(F)c(C(F)(F)F)c(F)c2)C(=O)N2CC3(CC3)C[C@H]2C(=O)N(C)C2(CCC2)C(=O)N(C)[C@@H]([C@@H](C)CC)C(=O)N(C)[C@H](C(=O)N(C)C)CC(=O)N1C [PP3358]"
  Kd / nM: 0.11
- Compound: "CCCO[C@@H]1C[C@H]2C(=O)NC3(CC(C)(C)C3)C(=O)N(C)[C@@H](C3CCCC3)C(=O)N(C)[C@H](C(=O)N(C)CC)CC(=O)N[C@@H](COCC)C(=O)N[C@@H]([C@@H](C)CC)C(=O)N3CCC[C@H]3C(=O)N(C)[C@H]3C/C=C\\CCN(C3=O)[C@@H](Cc3ccc(C)cc3)C(=O)N(C)CC(=O)N[C@@H](CCc3ccc(C(F)(F)F)c(OC)c3)C(=O)N2C1 [PP3439]"
  Kd / nM: 1.7
